The reported numbers originate from ChEMBL document CHEMBL5055633.

Experiment: Antimicrobial activity against New Delhi metallo-beta lactamase-1 and oxacillinase -181 producing Klebsiella pneumoniae 50531633 assessed as reduction in bacterial growth incubated for 48 hrs by microdilution method
Assay type: functional
property-name: MIC (µg/mL)
Report the value in µg/mL with no unit label.

## Task Return reported MIC; argument: `NCCCCN1C(=O)N(CCCCN)C(=O)C(Cc2ccc3ccccc3c2)(Cc2ccc3ccccc3c2)C1=O.O=C(O)C(F)(F)F.O=C(O)C(F)(F)F`
## Result 32

## Task Return reported MIC; argument: `N=C(N)NCCCCN1C(=O)N(CCCCNC(=N)N)C(=O)C(Cc2cc(Br)cc(Br)c2)(Cc2cc(Br)cc(Br)c2)C1=O.O=C(O)C(F)(F)F.O=C(O)C(F)(F)F`
## Result 4

## Task Return reported MIC; argument: `N=C(N)NCCCCN1C(=O)N(CCCCNC(=N)N)C(=O)C(Cc2ccc3ccccc3c2)(Cc2ccc3ccccc3c2)C1=O.O=C(O)C(F)(F)F.O=C(O)C(F)(F)F`
## Result 16

## Task Return reported MIC; argument: `NCCCCN1C(=O)N(CCCCN)C(=O)C(Cc2ccc(Br)c(Cl)c2)(Cc2ccc(Br)c(Cl)c2)C1=O.O=C(O)C(F)(F)F.O=C(O)C(F)(F)F`
## Result 16

## Task Return reported MIC; argument: `N=C(N)NCCCCN1C(=O)N(CCCCNC(=N)N)C(=O)C(Cc2cc(C(F)(F)F)cc(C(F)(F)F)c2)(Cc2cc(C(F)(F)F)cc(C(F)(F)F)c2)C1=O.O=C(O)C(F)(F)F.O=C(O)C(F)(F)F`
## Result 16

----------
Test system: Escherichia coli
Experiment: Antimicrobial activity against New Delhi metallo-beta lactamase-1 producing Escherichia coli 50676002 assessed as reduction in bacterial growth incubated for 48 hrs by microdilution method
Type: functional
property-name: MIC (µg/mL)
Report the value in µg/mL with no unit label.

## Task Return reported MIC; argument: `NCCCCN1C(=O)N(CCCCN)C(=O)C(Cc2cc(C(F)(F)F)cc(C(F)(F)F)c2)(Cc2cc(C(F)(F)F)cc(C(F)(F)F)c2)C1=O.O=C(O)C(F)(F)F.O=C(O)C(F)(F)F`
## Result 16

## Task Return reported MIC; argument: `NCCCCN1C(=O)N(CCCCN)C(=O)C(Cc2ccc3ccccc3c2)(Cc2ccc3ccccc3c2)C1=O.O=C(O)C(F)(F)F.O=C(O)C(F)(F)F`
## Result 16

## Task Return reported MIC; argument: `N=C(N)NCCCCN1C(=O)N(CCCCNC(=N)N)C(=O)C(Cc2ccc(F)c3ccccc23)(Cc2ccc(F)c3ccccc23)C1=O.O=C(O)C(F)(F)F.O=C(O)C(F)(F)F`
## Result 4

## Task Return reported MIC; argument: `N=C(N)NCCCCN1C(=O)N(CCCCNC(=N)N)C(=O)C(Cc2ccc(C(F)(F)F)cc2)(Cc2ccc(C(F)(F)F)cc2)C1=O.O=C(O)C(F)(F)F.O=C(O)C(F)(F)F`
## Result 32

## Task Return reported MIC; argument: `N=C(N)NCCCCN1C(=O)N(CCCCNC(=N)N)C(=O)C(Cc2ccc3ccccc3c2)(Cc2ccc3ccccc3c2)C1=O.O=C(O)C(F)(F)F.O=C(O)C(F)(F)F`
## Result 8

## Task Return reported MIC; argument: `N=C(N)NCCCCN1C(=O)N(CCCCNC(=N)N)C(=O)C(Cc2ccc(Br)c(Cl)c2)(Cc2ccc(Br)c(Cl)c2)C1=O.O=C(O)C(F)(F)F.O=C(O)C(F)(F)F`
## Result 4

## Task Return reported MIC; argument: `CC(C)(C)c1ccc(CC2(Cc3ccc(C(C)(C)C)cc3)C(=O)N(CCCCNC(=N)N)C(=O)N(CCCCNC(=N)N)C2=O)cc1.O=C(O)C(F)(F)F.O=C(O)C(F)(F)F`
## Result 4

## Task Return reported MIC; argument: `NCCCCN1C(=O)N(CCCCN)C(=O)C(Cc2ccc(Br)c(Cl)c2)(Cc2ccc(Br)c(Cl)c2)C1=O.O=C(O)C(F)(F)F.O=C(O)C(F)(F)F`
## Result 16

## Task Return reported MIC; argument: `NCCCCN1C(=O)N(CCCCN)C(=O)C(Cc2ccc(F)c3ccccc23)(Cc2ccc(F)c3ccccc23)C1=O.O=C(O)C(F)(F)F.O=C(O)C(F)(F)F`
## Result 16

## Task Return reported MIC; argument: `N=C(N)NCCCCN1C(=O)N(CCCCNC(=N)N)C(=O)C(Cc2cc(C(F)(F)F)cc(C(F)(F)F)c2)(Cc2cc(C(F)(F)F)cc(C(F)(F)F)c2)C1=O.O=C(O)C(F)(F)F.O=C(O)C(F)(F)F`
## Result 4

## Task Return reported MIC; argument: `CC(C)(C)c1cc(CC2(Cc3cc(C(C)(C)C)cc(C(C)(C)C)c3)C(=O)N(CCCCN)C(=O)N(CCCCN)C2=O)cc(C(C)(C)C)c1.O=C(O)C(F)(F)F.O=C(O)C(F)(F)F`
## Result 8

----------
System: Escherichia coli
Assay: Antimicrobial activity against New Delhi metallo-beta lactamase-1 producing Escherichia coli 50676002 assessed as reduction in bacterial growth incubated for 48 hrs by microdilution method
Type: functional
property-name: MIC

## Task Return reported MIC; argument: `NCCCCN1C(=O)N(CCCCN)C(=O)C(Cc2cc(Br)cc(Br)c2)(Cc2cc(Br)cc(Br)c2)C1=O.O=C(O)C(F)(F)F.O=C(O)C(F)(F)F`
## Result 8 µg/mL

## Task Return reported MIC; argument: `NCCCCN1C(=O)N(CCCCN)C(=O)C(Cc2ccc(C(F)(F)F)cc2)(Cc2ccc(C(F)(F)F)cc2)C1=O.O=C(O)C(F)(F)F.O=C(O)C(F)(F)F`
## Result > 32 µg/mL

## Task Return reported MIC; argument: `CC(C)(C)c1ccc(CC2(Cc3ccc(C(C)(C)C)cc3)C(=O)N(CCCCN)C(=O)N(CCCCN)C2=O)cc1.O=C(O)C(F)(F)F.O=C(O)C(F)(F)F`
## Result 4 µg/mL

## Task Return reported MIC; argument: `CC(C)(C)c1cc(CC2(Cc3cc(C(C)(C)C)cc(C(C)(C)C)c3)C(=O)N(CCCCNC(=N)N)C(=O)N(CCCCNC(=N)N)C2=O)cc(C(C)(C)C)c1.O=C(O)C(F)(F)F.O=C(O)C(F)(F)F`
## Result 16 µg/mL

## Task Return reported MIC; argument: `N=C(N)NCCCCN1C(=O)N(CCCCNC(=N)N)C(=O)C(Cc2cc(Br)cc(Br)c2)(Cc2cc(Br)cc(Br)c2)C1=O.O=C(O)C(F)(F)F.O=C(O)C(F)(F)F`
## Result 4 µg/mL

----------
System: Escherichia coli
Assay: Antimicrobial activity against verona integron-encoded metallo-beta-lactamase-29-producing Escherichia coli 50639799 assessed as reduction in bacterial growth incubated for 48 hrs by microdilution method
Type: functional
Would you mind telling me the reported MIC of each entry?
Report the value in µg/mL with no unit label.

## Task Return reported MIC; argument: `CC(C)(C)c1cc(CC2(Cc3cc(C(C)(C)C)cc(C(C)(C)C)c3)C(=O)N(CCCCNC(=N)N)C(=O)N(CCCCNC(=N)N)C2=O)cc(C(C)(C)C)c1.O=C(O)C(F)(F)F.O=C(O)C(F)(F)F`
## Result 8

## Task Return reported MIC; argument: `NCCCCN1C(=O)N(CCCCN)C(=O)C(Cc2cc(C(F)(F)F)cc(C(F)(F)F)c2)(Cc2cc(C(F)(F)F)cc(C(F)(F)F)c2)C1=O.O=C(O)C(F)(F)F.O=C(O)C(F)(F)F`
## Result 16

----------
Test system: Staphylococcus aureus
Experiment: Antimicrobial activity against extended spectrum-lactamase-carbapenemas producing Staphylococcus aureus strain IHT 99040 assessed as reduction in bacterial growth incubated for 48 hrs by microdilution method
Format: functional
property-name: MIC (µg/mL)
Report the value in µg/mL with no unit label.

## Task For the record `CC(C)(C)c1cc(CC2(Cc3cc(C(C)(C)C)cc(C(C)(C)C)c3)C(=O)N(CCCCNC(=N)N)C(=O)N(CCCCNC(=N)N)C2=O)cc(C(C)(C)C)c1.O=C(O)C(F)(F)F.O=C(O)C(F)(F)F` , what value of MIC is listed for Staphylococcus aureus?
## Result 2

## Task For the record `NCCCCN1C(=O)N(CCCCN)C(=O)C(Cc2cc(C(F)(F)F)cc(C(F)(F)F)c2)(Cc2cc(C(F)(F)F)cc(C(F)(F)F)c2)C1=O.O=C(O)C(F)(F)F.O=C(O)C(F)(F)F` , what value of MIC is listed for Staphylococcus aureus?
## Result 16

----------
System: Pseudomonas aeruginosa
Test: Antimicrobial activity against Pseudomonas aeruginosa PAO1 assessed as reduction in bacterial growth incubated for 48 hrs by microdilution susceptibility test
Format: functional
property-name: MIC (µg/mL)
Report the value in µg/mL with no unit label.

## Task Return reported MIC; argument: `NCCCCN1C(=O)N(CCCCN)C(=O)C(Cc2cc(Br)cc(Br)c2)(Cc2cc(Br)cc(Br)c2)C1=O.O=C(O)C(F)(F)F.O=C(O)C(F)(F)F`
## Result 8

## Task Return reported MIC; argument: `CC(C)(C)c1ccc(CC2(Cc3ccc(C(C)(C)C)cc3)C(=O)N(CCCCNC(=N)N)C(=O)N(CCCCNC(=N)N)C2=O)cc1.O=C(O)C(F)(F)F.O=C(O)C(F)(F)F`
## Result 4

## Task Return reported MIC; argument: `NCCCCN1C(=O)N(CCCCN)C(=O)C(Cc2ccc(F)c3ccccc23)(Cc2ccc(F)c3ccccc23)C1=O.O=C(O)C(F)(F)F.O=C(O)C(F)(F)F`
## Result 8

## Task Return reported MIC; argument: `N=C(N)NCCCCN1C(=O)N(CCCCNC(=N)N)C(=O)C(Cc2ccc(F)c3ccccc23)(Cc2ccc(F)c3ccccc23)C1=O.O=C(O)C(F)(F)F.O=C(O)C(F)(F)F`
## Result 4

## Task Return reported MIC; argument: `NCCCCN1C(=O)N(CCCCN)C(=O)C(Cc2ccc(C(F)(F)F)cc2)(Cc2ccc(C(F)(F)F)cc2)C1=O.O=C(O)C(F)(F)F.O=C(O)C(F)(F)F`
## Result 64

## Task Return reported MIC; argument: `NCCCCN1C(=O)N(CCCCN)C(=O)C(Cc2cc(C(F)(F)F)cc(C(F)(F)F)c2)(Cc2cc(C(F)(F)F)cc(C(F)(F)F)c2)C1=O.O=C(O)C(F)(F)F.O=C(O)C(F)(F)F`
## Result 16

## Task Return reported MIC; argument: `N=C(N)NCCCCN1C(=O)N(CCCCNC(=N)N)C(=O)C(Cc2ccc3ccccc3c2)(Cc2ccc3ccccc3c2)C1=O.O=C(O)C(F)(F)F.O=C(O)C(F)(F)F`
## Result 8

## Task Return reported MIC; argument: `N=C(N)NCCCCN1C(=O)N(CCCCNC(=N)N)C(=O)C(Cc2ccc(Br)c(Cl)c2)(Cc2ccc(Br)c(Cl)c2)C1=O.O=C(O)C(F)(F)F.O=C(O)C(F)(F)F`
## Result 8

## Task Return reported MIC; argument: `N=C(N)NCCCCN1C(=O)N(CCCCNC(=N)N)C(=O)C(Cc2ccc(C(F)(F)F)cc2)(Cc2ccc(C(F)(F)F)cc2)C1=O.O=C(O)C(F)(F)F.O=C(O)C(F)(F)F`
## Result 64

## Task Return reported MIC; argument: `CC(C)(C)c1cc(CC2(Cc3cc(C(C)(C)C)cc(C(C)(C)C)c3)C(=O)N(CCCCN)C(=O)N(CCCCN)C2=O)cc(C(C)(C)C)c1.O=C(O)C(F)(F)F.O=C(O)C(F)(F)F`
## Result 4

## Task Return reported MIC; argument: `N=C(N)NCCCCN1C(=O)N(CCCCNC(=N)N)C(=O)C(Cc2cc(C(F)(F)F)cc(C(F)(F)F)c2)(Cc2cc(C(F)(F)F)cc(C(F)(F)F)c2)C1=O.O=C(O)C(F)(F)F.O=C(O)C(F)(F)F`
## Result 8
